# run_description: Scatchard plot analysis with radio-labelled ligand, anti-diazepam polymer
# experimental_parameters: read-out: KD, high affinity binding sites, LIGAND programme
parameter_measured: Kd (nM)
Value expressed in nM; do not type the unit.

Problem: For the compound `CN1C(=O)CN=C(c2ccccc2)c2cc(Cl)ccc21` , what Kd is on record?
Result: 37.6

###

# run_description: Molecularly Imprinted Sorbent Assay (MIA), competitive binding of 3H-theophylline to anti-theophylline polymer
# experimental_parameters: molar ratio of theophylline to ligand giving 50% inhibition of 3H-theophylline binding to polymer; ligands added to drug free serum
parameter_measured: Cross-reaction (%) ArtAb, Theophylline antibodies

O=c1[nH]cnc2nc[nH]c12 :: <1%
Cn1c(=O)[nH]c2[nH]c(=O)[nH]c2c1=O :: <1%

Please look at the following compound next.
Problem: For the compound `Cn1c(=O)c2[nH]c(=O)[nH]c2n(C)c1=O` , what Cross-reaction (%) ArtAb, Theophylline antibodies is on record?
Result: <1%
